meta.source: ChEMBL document CHEMBL1944582

- assay_notes: Oral bioavailability in CD-1 mouse at 100 mg/kg as a solution in 40%PEG400/10%ethanol/50% water
- Assay type: ADME, organism-based
- particulars: in vivo

| given_smiles | bioavailability |
| --- | --- |
| CCCS(=O)(=O)Nc1ccc(Cl)c(C(=O)Nc2cnc3[nH]nc(OC)c3c2)c1F | 1.2% |
| CCCS(=O)(=O)Nc1ccc(F)c(C(=O)Nc2cnc3[nH]nc(OC)c3c2)c1F | 51% |

====

Collected pIC50 values appear next to each entry.
- assayed_target: Serine/threonine-protein kinase B-raf (Homo sapiens, UniProt P15056, V600E)
- Sequence (P15056 2-766 V600E limits assumed): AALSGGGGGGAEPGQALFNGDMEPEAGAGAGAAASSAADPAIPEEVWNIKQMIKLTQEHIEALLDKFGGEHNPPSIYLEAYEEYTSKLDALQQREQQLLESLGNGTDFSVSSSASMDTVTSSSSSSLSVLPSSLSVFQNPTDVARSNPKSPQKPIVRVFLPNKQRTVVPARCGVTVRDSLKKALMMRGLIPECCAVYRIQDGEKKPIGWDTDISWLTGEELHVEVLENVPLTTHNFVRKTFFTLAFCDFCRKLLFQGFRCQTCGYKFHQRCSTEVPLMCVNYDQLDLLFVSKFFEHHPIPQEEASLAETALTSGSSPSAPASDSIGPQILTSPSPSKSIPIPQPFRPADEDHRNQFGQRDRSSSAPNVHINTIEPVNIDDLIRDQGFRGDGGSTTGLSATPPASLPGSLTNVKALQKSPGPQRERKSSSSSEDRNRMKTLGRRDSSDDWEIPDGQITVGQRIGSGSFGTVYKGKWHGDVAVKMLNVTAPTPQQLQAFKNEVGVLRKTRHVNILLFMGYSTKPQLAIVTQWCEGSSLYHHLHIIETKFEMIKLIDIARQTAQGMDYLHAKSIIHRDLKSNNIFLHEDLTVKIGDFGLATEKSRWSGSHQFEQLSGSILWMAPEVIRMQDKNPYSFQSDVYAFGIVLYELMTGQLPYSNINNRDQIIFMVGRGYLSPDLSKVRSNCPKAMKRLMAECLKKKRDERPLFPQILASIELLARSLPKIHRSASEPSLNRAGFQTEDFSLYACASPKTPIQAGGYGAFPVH
- assay_notes: Inhibition of B-Raf V600E mutant-mediated Erk phosphorylation in human MALME-3M cells after 1 hr by fluorescence analysis
- Assay type: cell-based
pIC50: −log10 of the molar value.

| given_smiles | assayed_target | pIC50 |
| --- | --- | --- |
| CCCS(=O)(=O)Nc1ccc(F)c(C(=O)Nc2cnc3[nH]nc(C)c3c2)c1F | Serine/threonine-protein kinase B-raf (Homo sapiens, UniProt P15056, V600E) | 7.07 |
| CCCS(=O)(=O)Nc1ccc(F)c(C(=O)Nc2cnc3[nH]cc(Br)c3c2)c1F | Serine/threonine-protein kinase B-raf (Homo sapiens, UniProt P15056, V600E) | 7.41 |
| CCCS(=O)(=O)Nc1ccc(F)c(C(=O)Nc2cnc3[nH]nc(Br)c3c2)c1F | Serine/threonine-protein kinase B-raf (Homo sapiens, UniProt P15056, V600E) | 7.36 |
| CCCS(=O)(=O)Nc1ccc(F)c(C(=O)Nc2ccc(N)nc2)c1F | Serine/threonine-protein kinase B-raf (Homo sapiens, UniProt P15056, V600E) | 5.62 |
| CCCS(=O)(=O)Nc1ccc(F)c(C(=O)Nc2cnc(N)c(Br)c2)c1F | Serine/threonine-protein kinase B-raf (Homo sapiens, UniProt P15056, V600E) | 6.51 |
| CCCS(=O)(=O)Nc1ccc(F)c(C(=O)Nc2cnc3[nH]cnc3c2)c1F | Serine/threonine-protein kinase B-raf (Homo sapiens, UniProt P15056, V600E) | 5.62 |
| CCCS(=O)(=O)Nc1ccc(F)c(C(=O)Nc2cnc3[nH]nc(OC)c3c2)c1F | Serine/threonine-protein kinase B-raf (Homo sapiens, UniProt P15056, V600E) | 7.72 |
| CCCS(=O)(=O)Nc1ccc(F)c(C(=O)Nc2cnc3[nH]ncc3c2)c1F | Serine/threonine-protein kinase B-raf (Homo sapiens, UniProt P15056, V600E) | 7.21 |
| CCCS(=O)(=O)Nc1ccc(F)c(C(=O)Nc2cccnc2)c1F | Serine/threonine-protein kinase B-raf (Homo sapiens, UniProt P15056, V600E) | 5.17 |
| CCCS(=O)(=O)Nc1ccc(F)c(C(=O)Nc2cnc3[nH]nc(N(C)C)c3c2)c1F | Serine/threonine-protein kinase B-raf (Homo sapiens, UniProt P15056, V600E) | 7.40 |
